ASSAYED TARGET: HLA-DR DRB1*0401 (human)
EXPERIMENTAL PROTOCOL: radioligand inhibition, purified HLA-DR
pIC50: −log10 of the molar value.
Property: pIC50; scope: individual binders
REPORTED METRIC: pIC50

>>> print(df.to_string())
                                binder  numeric_result
0  ELPLQALVMGEGTCE [Peptide 9019.0182]            5.17
1  SEGGLVENHVDSTMN [Peptide 9019.0183]            5.92
2  LPRVGCPALPLPPPP [Peptide 9919.0173]            5.18
3  GATLERPKTLSPGKN [Peptide 9019.0102]            5.55
